target: 5-hydroxytryptamine receptor 1E (Homo sapiens) (UniProt P28566); assay: blockade of human 5HT1E serotonin receptor – cell-based, dose response (AID 749); conditions: CHO 5-HT1E Ga15 NFAT-BLA reporter, FRET
Sequence (P28566 whole entry, looked up): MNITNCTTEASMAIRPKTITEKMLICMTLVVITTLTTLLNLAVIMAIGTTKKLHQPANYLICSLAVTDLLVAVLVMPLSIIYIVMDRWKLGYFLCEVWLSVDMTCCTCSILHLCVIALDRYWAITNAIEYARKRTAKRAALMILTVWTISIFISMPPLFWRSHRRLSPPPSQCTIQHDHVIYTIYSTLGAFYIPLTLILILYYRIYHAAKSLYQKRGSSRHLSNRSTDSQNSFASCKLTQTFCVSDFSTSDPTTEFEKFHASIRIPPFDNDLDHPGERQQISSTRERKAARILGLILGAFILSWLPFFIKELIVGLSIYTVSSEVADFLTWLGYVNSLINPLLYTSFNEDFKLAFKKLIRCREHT
Activity calls are given as the source filed them.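 How the source made its calls: active means IC50 at or below 10 micromolar; inactive means IC50 above 10 micromolar.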
MEASURE NAME: IC50

Some compounds with recorded IC50:
Task: Could you share which IC50 value was measured for COCCOC(=O)c1[nH]c2c(c1C)C(=O)CC(c1ccccc1)C2 (configuration not stated) ?
Result: > 50 µM (inactive)

Task: Could you share which IC50 value was measured for CCn1nc(-c2ccccc2)nc2c(=O)n(C)c(=O)nc1-2 ?
Result: > 50 µM (inactive)

Task: Could you share which IC50 value was measured for CS(=O)(=O)c1nc(-c2ccccc2)cc(C(F)(F)F)n1 ?
Result: 2.13 µM

Task: Could you share which IC50 value was measured for CCCc1nnc2n1N=C(c1ccc(OC)c(OC)c1)CS2 ?
Result: > 50 µM (inactive)

Task: Could you share which IC50 value was measured for COc1cccc(N2CCN(c3ncnc4c3[nH]c3ccccc34)CC2C)c1 (configuration not stated) ?
Result: 8.24 µM

Task: Could you share which IC50 value was measured for COc1ccc(N2C(=O)CC(NCc3ccncc3)C2=O)cc1 (configuration not stated) ?
Result: > 50 µM (inactive)

API: the following record is the query input.
Task: Could you share which IC50 value was measured for COc1cccc(N2CCN(c3ncnc4c3cnn4-c3ccc(C)cc3C)CC2)c1 ?
Result: 6.99 µM

###

biological target: UniProt P28566; assay: blockade of human 5HT1E serotonin receptor – cell-based, dose response (AID 749); settings: CHO 5-HT1E Ga15 NFAT-BLA reporter, FRET
Calls of active or inactive are those of the source.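 The calls were made as follows: active = IC50 at or below 10 micromolar; inactive = IC50 above 10 micromolar.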
Response enum: 1 = active, 0 = inactive

Task: Could you check what this test reported for CC(=O)Nc1cc(OC(C)=O)c2nonc2c1OC(C)=O ?
Result: 1

New cases:
Task: Could you check what this test reported for CC(=O)Oc1ccc(N2C(=O)C3C(C2=O)C2(C)C=CC3(C)O2)cc1 (centres undefined) ?
Result: 1

Task: Could you check what this test reported for COc1cc2c(cc1OC)-c1cc(N3CCCc4ccccc43)nc(=O)n1CC2 ?
Result: 0

Task: Could you check what this test reported for CS(=O)(=O)c1nc(-c2ccco2)cc(C(F)(F)F)n1 ?
Result: 1

Task: Could you check what this test reported for CSc1ccccc1N=CC1=C(O)CC(C)(C)CC1=O ?
Result: 1

Task: Could you check what this test reported for CCOc1ccc(C2=Nn3c(nnc3-c3ccccc3OC)SC2)cc1 ?
Result: 0

Task: Could you check what this test reported for Cc1ccc(S(=O)(=O)Nc2cccc3ncccc23)s1 ?
Result: 1

###

molecular target: 5-hydroxytryptamine receptor 1E (Homo sapiens) (UniProt P28566); test: blockade of human 5HT1E serotonin receptor – cell-based, dose response (AID 749); details: CHO 5-HT1E Ga15 NFAT-BLA reporter, FRET
Activity calls are given as the source filed them.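 Rule for the calls: active = IC50 at or below 10 micromolar; inactive = IC50 above 10 micromolar.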
Response enum: t for active, f for inactive

Task: Could you check what this test reported for COc1ccc(-n2nnnc2S(=O)(=O)CC(=O)N2CCCCC2)cc1 ?
Result: t

Task: Could you check what this test reported for COC(=O)/C(=C1/Oc2cc(C)oc(=O)c2S1)C(F)(F)F ?
Result: t

Task: Could you check what this test reported for COc1ccccc1-c1nnc2n1N=C(c1ccc(O)c(O)c1)CS2 ?
Result: f

Task: Could you check what this test reported for CCn1c(=O)c(C(=O)Nc2nc3ccccc3[nH]2)c(O)c2ccccc21 ?
Result: f

Task: Could you check what this test reported for CN(C)c1nc(OCCNC(=O)COc2ccc(Cl)cc2Cl)nc(N2CCCCC2)n1 ?
Result: f

Task: Could you check what this test reported for COc1cc(NS(=O)(=O)c2ccc(C)cc2)c2ncccc2c1 ?
Result: t

Task: Could you check what this test reported for COc1cccc(N2CCN(c3ncnc4c3[nH]c3ccc(F)cc34)CC2C)c1 (stereo unspecified) ?
Result: t

Task: Could you check what this test reported for Cn1c(-c2c(N)n(C3CCCC3)c3nc4ccccc4nc23)nc2ccccc21 ?
Result: t

Task: Could you check what this test reported for Cc1ccc(-n2nc3c([n+]2[O-])CCc2c-3no[n+]2[O-])cc1 ?
Result: t

Task: Could you check what this test reported for CCOc1cccc(-c2nnc3n2N=C(c2cc(OC)ccc2OC)CS3)c1 ?
Result: f

Task: Could you check what this test reported for COC(=O)Nc1nc2ccc(Sc3ccccc3)cc2[nH]1 ?
Result: f

###

biological target: UniProt P28566; experiment: blockade of human 5HT1E serotonin receptor – cell-based, dose response (AID 749); settings: CHO 5-HT1E Ga15 NFAT-BLA reporter, FRET
Activity calls are given as the source filed them.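 The calls were made as follows: active = IC50 at or below 10 micromolar; inactive = IC50 above 10 micromolar.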
Response enum: 1 (active), -1 (inactive)

Task: Could you check what this test reported for CCCOc1ccc2nc(NC(=O)OC)[nH]c2c1 ?
Result: -1

Task: Could you check what this test reported for CCC(NC(=O)Nc1nnc(C(F)(F)F)s1)(C(F)(F)F)C(F)(F)F ?
Result: -1

Task: Could you check what this test reported for CS(=O)(=O)c1nc(-c2cccs2)cc(C(F)(F)F)n1 ?
Result: 1

Task: Could you check what this test reported for COc1ccc(C2N(c3ccc(F)cc3)C(=O)C3CCCN32)cc1 (configuration not stated) ?
Result: -1

Task: Could you check what this test reported for CCn1nc(-c2cccs2)nc2c(=O)n(C)c(=O)nc1-2 ?
Result: 1

New cases:
Task: Could you check what this test reported for O=C(Nc1ccc(-c2nc3ncccc3o2)cc1)c1ccc(Br)o1 ?
Result: -1

Task: Could you check what this test reported for CCN(CC)c1ccc2c(Cl)c(Br)c(=O)oc2c1 ?
Result: 1

Task: Could you check what this test reported for CCCOCCOC(=O)c1[nH]c2c(c1C)C(=O)CC(c1cc(OC)ccc1OC)C2 (configuration not stated) ?
Result: -1

Task: Could you check what this test reported for COc1ccc(-c2cc(C(F)(F)F)nc(S(C)(=O)=O)n2)cc1OC ?
Result: 1

###

biological target: 5-hydroxytryptamine receptor 1E (Homo sapiens) (UniProt P28566); assay: blockade of human 5HT1E serotonin receptor – cell-based, dose response (AID 749); details: CHO 5-HT1E Ga15 NFAT-BLA reporter, FRET
Active and inactive are the calls of the source.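 The calls were made as follows: active = IC50 at or below 10 micromolar; inactive = IC50 above 10 micromolar.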
Response enum: y for active, n for inactive

Task: Could you check what this test reported for CC(C)=CCC(C)(C)CNC(=O)NC1CCCCC1 ?
Result: n

Task: Could you check what this test reported for N#C/C(=C/c1ccc(N2CCCCCC2)o1)c1ccc(F)cc1 ?
Result: y

Task: Could you check what this test reported for N#CCCS(=O)(=O)c1nnnn1-c1ccccc1 ?
Result: y

Task: Could you check what this test reported for COc1cc2c(cc1OC)C1=C(C#N)CC/C(=N\S(=O)(=O)c3ccccc3)N1CC2 ?
Result: n

Task: Could you check what this test reported for O=C1C2C3C=CC(CO)(O3)C2C(=O)N1c1ccc(-c2ccccc2)cc1 (stereo not drawn) ?
Result: y

Task: Could you check what this test reported for O=S1(=O)C=C(Sc2nnc(-c3ccccc3)o2)c2ccccc21 ?
Result: y

Task: Could you check what this test reported for Clc1ccc(-n2nnnc2Sc2ncnc3sccc23)cc1 ?
Result: y

Please turn your attention to the following entry.
Task: Could you check what this test reported for O=C(Nc1ccc(N2CCOCC2)cc1)Nc1ccc2nc(-c3ccco3)c(-c3ccco3)nc2c1 ?
Result: n
